Tested on: absorption of phosphorus
Run Description: Evaluation of efficacy as phosphorus absorption inhibitors: serum radioactivity AUC (0-120 min) after oral 32P NaH2PO4 in rats, inhibitory rate
Type: in vivo
Test Parameters: rats of SD line, oral dose 100 mg/5 mL/kg, 32P NaH2PO4 given orally 5 min later, serum radioactivity AUC 0-120 min vs control
Description: Seven-week-old male rats of SD line (available from SANKYO Labo-Service Co., Ltd.), as test animals, were kept and acclimatized using the usual feed (Solid CRF-1 available from ORIENTAL Yeast Co., Ltd.) and they were used in the following tests after they were fasted overnight. […] The inhibitory rate (%) for each candidate compound was calculated on the basis of the foregoing measured values according to the following equation: […]
Structures can show the parent of a compound that is named as a salt.
The threshold is inclusive: Inhibitory Rate (%) of Phosphorus Absorption of exactly 40% counts as yes (1); values below receive no (0).

| Molecule | System Tested | Cat |
| --- | --- | --- |
| NCCC[C@H](N)C(=O)NCCCN(CCCCN(CCCNC(=O)[C@@H](N)CCCN)C(=O)[C@@H](N)CCCN)C(=O)[C@@H](N)CCCN [Example 4, SPM(Orn)4 Hydrochloride] | absorption of phosphorus | yes (1) |
| NCCCC[C@H](N)C(=O)NCCCC[C@H](N)C(=O)N(CCCCN(CCCNC(=O)[C@@H](N)CCCCN)C(=O)[C@@H](N)CCCCNC(=O)[C@@H](N)CCCCN)CCCNC(=O)[C@@H](N)CCCCN [Example 6, SPM(Lys)6 Hydrochloride] | absorption of phosphorus | no (0) |
| N=C(N)NCCC[C@H](N)C(=O)NCCCN(CCCCN(CCCNC(=O)[C@@H](N)CCCNC(=N)N)C(=O)[C@@H](N)CCCNC(=N)N)C(=O)[C@@H](N)CCCNC(=N)N [Example 5, SPM(Arg)4 Hydrochloride] | absorption of phosphorus | yes (1) |
| NCCC[C@H](N)C(=O)NCCC[C@H](N)C(=O)NCCCN(CCCCN(CCCNC(=O)[C@@H](N)CCCNC(=O)[C@@H](N)CCCN)C(=O)[C@@H](N)CCCNC(=O)[C@@H](N)CCCN)C(=O)[C@@H](N)CCCNC(=O)[C@@H](N)CCCN [Example 14, SPM(Orn)8 Hydrochloride] | absorption of phosphorus | yes (1) |
| NCCCC[C@H](N)C(=O)NCCCC[C@H](NC(=O)[C@@H](N)CCCCN)C(=O)NCCCNCCCCNCCCNC(=O)[C@H](CCCCNC(=O)[C@@H](N)CCCCN)NC(=O)[C@@H](N)CCCCN [Example 7, SPM(Lys)6 Hydrochloride] | absorption of phosphorus | no (0) |
| NCCCC[C@H](NC(=O)[C@@H](N)CCCCN)C(=O)NCCCN(CCCCN(CCCNC(=O)[C@H](CCCCN)NC(=O)[C@@H](N)CCCCN)C(=O)[C@H](CCCCN)NC(=O)[C@@H](N)CCCCN)C(=O)[C@H](CCCCN)NC(=O)[C@@H](N)CCCCN [Example 16, SPM(Lys)8 Hydrochloride] | absorption of phosphorus | yes (1) |
| NCCCC[C@H](N)C(=O)NCCCC[C@H](NC(=O)[C@@H](N)CCCCN)C(=O)N(CCCN)CCCCN(CCCN)C(=O)[C@H](CCCCNC(=O)[C@@H](N)CCCCN)NC(=O)[C@@H](N)CCCCN [Example 12, SPM(Lys)6 Hydrochloride] | absorption of phosphorus | yes (1) |
| NCCCC[C@H](N)C(=O)NCCCC[C@H](N)C(=O)NCCCN(CCCCN(CCCNC(=O)[C@@H](N)CCCCNC(=O)[C@@H](N)CCCCN)C(=O)[C@@H](N)CCCCNC(=O)[C@@H](N)CCCCN)C(=O)[C@@H](N)CCCCNC(=O)[C@@H](N)CCCCN [Example 15, SPM(Lys)8 Hydrochloride] | absorption of phosphorus | no (0) |
